The measurements presented in this section are drawn from ChEMBL document CHEMBL1201862.

- System: U-251
- experiment-notes: NCI tumour cell line growth inhibition, 48 h
Active and inactive are the calls of the source. Cut-off read from the data, not from the text of the source: active = GI50 up to about 1.1 µM and inactive = higher.
# key: entry, value: GI50

- molecule: "OCC1OC(O[C@H]2CN3[C@H](O)[C@@H](O)[C@H](O)[C@H]3C2O)C(O)C(O)C1O (stereo partly drawn)"
  GI50: "> 100 µM (inactive)"

Asked: Which GI50 value belongs to COc1ccc(/N=N/c2c(O)ccc3ccccc23)cc1 ?
Given back: 15.8 µM (inactive)

Asked: Which GI50 value belongs to Cc1cc(N(CCOS(C)(=O)=O)CCOS(C)(=O)=O)ccc1C=O ?
Given back: 8.36 µM (inactive)

Asked: Which GI50 value belongs to CC1=C(C(=O)NCc2ccccc2)C(c2ccc([N+](=O)[O-])cc2)C(C(=O)NCc2ccccc2)=C(C)N1 ?
Given back: 40.3 µM (inactive)

Asked: Which GI50 value belongs to C/C(=N\NC(=S)NC(C)(C)C)c1nc2cccnc2[nH]1 ?
Given back: 1.15 µM (inactive)

Asked: Which GI50 value belongs to CC1(C)CC(=O)c2c(N)n[nH]c2C1 ?
Given back: > 100 µM (inactive)

Asked: Which GI50 value belongs to CCOC(=O)C1C(=O)C=C(c2cc(C)ccc2O)CC1c1cccc(Br)c1 (stereo not drawn) ?
Given back: 16.1 µM (inactive)

Asked: Which GI50 value belongs to CCCCCCc1cc2cc(C(=O)NCc3ccccc3)c(=N)oc2cc1O ?
Given back: > 100 µM (inactive)

Asked: Which GI50 value belongs to Cc1cc(C)nc(NS(=O)(=O)c2ccc(NNc3c4ccccc4nc4c(C(=O)Nc5ccc(S(=O)(=O)Nc6cc(C)on6)cc5)cccc34)cc2)n1 ?
Given back: 26.7 µM (inactive)

Asked: Which GI50 value belongs to CNc1nc2c(C)ccc3nc(N(C)C)[nH]c3c-2n1 ?
Given back: 58.3 µM (inactive)

Asked: Which GI50 value belongs to CCn1c(=O)c2c3ccc(OC(C)=O)cc3[nH]c2c2ccc(OC(C)=O)cc21 ?
Given back: 37.2 µM (inactive)

* * *

- Tested on: SR
- experiment-notes: NCI tumour cell line growth inhibition, 48 h
Active and inactive are the calls of the source. Rule as the data show it: active = GI50 up to about 1.1 µM and inactive = higher.
# key: entry, value: GI50

- compound: "Nc1ccc2nc(N)n[n+]([O-])c2c1"
  measured-quantity: "GI50"
  reported: "> 100 µM (inactive)"
- compound: "COC(=O)CNC(=O)c1cc(C)cc2c1Oc1c(cc(C)cc1C(=O)NCC(=O)OC)S2"
  measured-quantity: "GI50"
  reported: "31 µM (inactive)"

Asked: Which GI50 value belongs to CCOC(=O)/C=C(/OCC)[C@@H]1C(C(=O)c2ccc(Cl)cc2)[C@H]1/C(=C\C(=O)OCC)OCC (stereo not given in full) ?
Given back: 8.73 µM (inactive)

Asked: Which GI50 value belongs to COc1cc2c(cc1C[C@H]1[C@@H]3C[C@H]4c5c(c6ccccc6n5C)C[C@@H]([C@@H]3CO[C@]1(C)OC(C)=O)N4C)c1c(n2C)C2C[C@H]3C(C(C)=O)=COC[C@H]3[C@H](C1)N2C ?
Given back: 2.64 µM (inactive)

Asked: Which GI50 value belongs to Cc1cc(CNC(=O)OCc2ccccc2)c(C)c2c1Oc1ccccc1O2 ?
Given back: > 100 µM (inactive)

* * *

# key: entry, value: GI50
- System: NCI-H23
- experiment-notes: NCI tumour cell line growth inhibition, 48 h
Calls of active or inactive are those of the source. No stated cut-off is given here; in the data, active = GI50 up to about 1.1 µM and inactive = higher.

- compound: "CC(C)(CO)N1CCN(C(S)=Nc2ccccc2)CC1"
  GI50: "> 100 µM (inactive)"

Asked: Which GI50 value belongs to COc1ccc2nc(N/N=C/C(C)=N/Nc3cc(C)c4cc(OC)ccc4n3)cc(C)c2c1 ?
Given back: 23.1 µM (inactive)

Asked: Which GI50 value belongs to COCC(=O)CP(=O)(OC)OC ?
Given back: > 100 µM (inactive)

Asked: Which GI50 value belongs to CC(=O)NNc1nc(C)c(C(=O)NNC(=O)C(=O)Nc2ccc([N+](=O)[O-])cc2[N+](=O)[O-])s1 ?
Given back: > 100 µM (inactive)

Asked: Which GI50 value belongs to C=CCc1c(Cl)nc(Cl)nc1Cl ?
Given back: 0.422 µM (active)

Asked: Which GI50 value belongs to S=C1/C(=N/c2ccccc2)N(c2ccccc2)/C(=N\c2cccc[n+]2Cc2ccccc2)N1c1ccccc1 ?
Given back: 19 µM (inactive)

Asked: Which GI50 value belongs to Cc1cccc(CC(C)(C)C)c1NC(=O)C(=O)C(C(=O)c1ccc2ccccc2c1)C1OC(=O)c2ccccc21 (configuration not stated) ?
Given back: 6.35 µM (inactive)

* * *

- Test system: OVCAR-8
- experiment-notes: NCI tumour cell line growth inhibition, 48 h
The source made the active and inactive calls. Rule as the data show it: active = GI50 up to about 1.1 µM and inactive = higher.
Tick one outcome: active, inactive

- input-smiles: "CCN1CCN(c2ccc(Nc3ccnc4ccc5nn(C)nc5c34)cc2)CC1"
  group: "inactive"
- input-smiles: "Cc1cccc(/C=N/NC(=S)N2CCCC2)n1"
  group: "active"

Asked: Status in this test for Cc1cc(N(CCC#N)CCC#N)ccc1C(/N=N\c1ccc(C(=O)O)cc1)=N\NC(=O)c1cc(Cl)ccc1O ?
Given back: inactive

* * *

- Test system: PC-3
- experiment-notes: NCI tumour cell line growth inhibition, 48 h
Activity calls are given as the source filed them. Rule as the data show it: active = GI50 up to about 1.1 µM and inactive = higher.
Tick one outcome: active, inactive

- compound: "CC(NC1=NCCO1)c1ccccc1Cl (stereo unspecified)"
  group: "inactive"
- compound: "O=C(O)CSc1nnc2c3ccccc3c3ccccc3c2n1"
  group: "inactive"
- compound: "CN(Cc1cnc2nc(N)nc(N)c2n1)c1ccc(C(=O)NC(CCC(=O)O)C(=O)O)c2ccccc12 (stereo unspecified)"
  group: "active"

Asked: Status in this test for C[n+]1c(-c2ccc(/C=N/Nc3ccnc(N/N=C/c4ccc(-c5cn6ccsc6[n+]5C)cc4)n3)cc2)cn2ccsc21 ?
Given back: inactive

Asked: Status in this test for Cc1cnc2sn(-c3ccc([N+](=O)[O-])cc3)c(=O)c2c1 ?
Given back: inactive

* * *

- Test system: U-251
- experiment-notes: NCI tumour cell line growth inhibition, 48 h
Activity calls are given as the source filed them. No stated cut-off is given here; in the data, active = GI50 up to about 1.1 µM and inactive = higher.
measured-quantity: GI50

Observe how each entry below is paired with its result.
- compound: "O=C1C(Cl)=C(N(C(=O)c2ccccc2)C(=O)c2ccccc2)C(=O)c2ccccc21"
  GI50: "5.98 µM (inactive)"
- compound: "S=C1/C(=N/c2ccccc2)N(c2ccccc2)/C(=N\\c2cccc[n+]2Cc2ccccc2)N1c1ccccc1"
  GI50: "> 10 µM (inactive)"
- compound: "CCOc1ccc(NC(=O)/C(CC(=O)c2c[n+]([O-])c3ccccc3[n+]2[O-])=N\\OCCCc2ccccc2)cc1"
  GI50: "> 100 µM (inactive)"
- compound: "CSc1nc2c(c(N(C)C)n1)C(O)n1c(nc3ccccc31)S2 (configuration not stated)"
  GI50: "> 22.7 µM (inactive)"
- compound: "O=[N+]([O-])c1ccc2c(c1)n1c(N3CCCC3)[n+]3ccccc3c1c1c3ccccn3c(N3CCCC3)[n+]21.[O-][Cl+3]([O-])([O-])[O-].[O-][Cl+3]([O-])([O-])[O-]"
  GI50: "36.7 µM (inactive)"
- compound: "CN1OC(CO)CC12C1CC3CC(C1)CC2C3 (configuration not stated)"
  GI50: "> 100 µM (inactive)"

Below: the item to evaluate.
Asked: Query for U-251: what GI50 does the record show for O=C1C2=C(SCCS2)C(=O)c2ccccc21 ?
Given back: 1.64 µM (inactive)

* * *

- System: PC-3
- experiment-notes: NCI tumour cell line growth inhibition, 48 h
Active and inactive are the calls of the source. Rule as the data show it: active = GI50 up to about 1.1 µM and inactive = higher.
Tick one outcome: active, inactive

- compound: "CSc1c(C#N)c(=O)[nH]c2[nH]nc(C)c12"
  group: "inactive"

Asked: Status in this test for CNc1nc2c(C)ccc3nc(N(C)C)[nH]c3c-2n1 ?
Given back: inactive

Asked: Status in this test for Br/C(=N\N=c1/nn[nH][nH]1)c1ccncc1 ?
Given back: inactive

Asked: Status in this test for Oc1cc(-c2cccc(C(F)(F)F)c2)nc2cc3c(cc12)OCO3 ?
Given back: active

* * *

- Tested on: PC-3
- experiment-notes: NCI tumour cell line growth inhibition, 48 h
Calls of active or inactive are those of the source. Cut-off read from the data, not from the text of the source: active = GI50 up to about 1.1 µM and inactive = higher.
# key: entry, value: GI50

- compound: "Nc1nc(Cl)cc(NCC2(CO)CCC2)n1"
  GI50: "> 100 µM (inactive)"
- compound: "CSc1cc(Cl)c(C)cc1S(=O)(=O)NC(=O)NNc1ccc(Cl)cc1"
  GI50: "80.5 µM (inactive)"
- compound: "CC1C(c2ccc(F)cc2)c2cc3c(cc2OC1N1CCCC1)OCO3 (configuration not stated)"
  GI50: "44.2 µM (inactive)"
- compound: "CC(=O)NNC1=NN(C(C)=O)C2(S1)C(=O)Nc1ccc(C)cc12 (configuration not stated)"
  GI50: "67.5 µM (inactive)"
- compound: "COc1ccc(N2C(=O)C3c4[nH]c5ccc(OCc6ccccc6)cc5c4C4CCC(c5ccccc5)CC4C3C2=O)cc1 (configuration not stated)"
  GI50: "8.53 µM (inactive)"
- compound: "O=C1c2ccccc2C(=O)c2c1ccc1c2OCO1"
  GI50: "> 100 µM (inactive)"

Below: the item to evaluate.
Asked: Which GI50 value belongs to O=C(Nc1cc2c(=O)[nH]c3ccccc3c2oc1=O)c1cnccn1 ?
Given back: > 100 µM (inactive)
